- Test system: biotinyl-Trp-oxazolone
- Experimental protocol: self-aminoacylation, catalytic enhancement (BWO) (fold over background); higher = more active; k-Seq, kA / k0A0; sequences stand for … in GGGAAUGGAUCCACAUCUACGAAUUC…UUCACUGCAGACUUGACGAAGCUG
Fewer inactive variants are shown than the library holds.
Please respond with reported self-aminoacylation for every item in the list.
Give the value as a plain number.

[ask] # value lookup — system biotinyl-Trp-oxazolone, readout self-aminoacylation, item AAGUUUGCUAAUAGGCGGAAG [Fam3.1 aminoacylation ribozyme variant]
[reply] 0.922

[ask] // repeat for CUGUUUCAAACAAUCGGUCUG [Fam1A.1 aminoacylation ribozyme variant] and report
[reply] 38.4

[ask] // repeat for UAGUUUGCUAAUAGUCGCAAG [Fam3.1 aminoacylation ribozyme variant] and report
[reply] 3.18

[ask] // repeat for UAGUUUGCUAAAAGUCGCAAG [Fam3.1 aminoacylation ribozyme variant] and report
[reply] 3.43

[ask] // repeat for AUUACCCUGGUCACCGAGUCA [Fam2.1 aminoacylation ribozyme variant] and report
[reply] 1.84
